B1: Azoarcus group I ribozyme (parent)
chain: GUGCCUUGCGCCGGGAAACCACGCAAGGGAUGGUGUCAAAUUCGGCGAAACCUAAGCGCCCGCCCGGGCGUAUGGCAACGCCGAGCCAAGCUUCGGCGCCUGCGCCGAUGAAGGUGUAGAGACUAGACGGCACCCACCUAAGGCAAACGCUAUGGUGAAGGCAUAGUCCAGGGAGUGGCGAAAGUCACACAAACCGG

- Variants of: B1
- Method Description: reverse-splicing fitness (ratio to wild type); higher = more active; in vitro selection; Mg2+ level not given
Measured Metric: reverse-splicing fitness

{"columns": ["Mutation Spec", "Data Value"],
 "data": [
  ["C82G A111G A120U C150A C169G U176A", 0.00749],
  ["C82A A111C A120U C150A C169A U176C", 0.00418],
  ["A111C A120U A145G C150U C169U U176A", 0.0118],
  ["C82U A111C A120G C150A C169A", 0.0101],
  ["C82A A111G A120G A145G C150U U176A", 0.00945],
  ["C82U A111U A120U A145C C150A C169G U176A", 0.00269],
  ["C82G A145G C150G C169U", 0.011],
  ["C82A A111U A120G A145U C150G", 0.00799],
  ["A145C C150U C169G", 0.0825],
  ["A111C C169A U176A", 0.0188],
  ["C82A A111U A145G C169A U176C", 0.0292],
  ["C82U A111U A120C C169U U176C", 0.0164],
  ["C82U A111C A120C A145G C150G C169U U176A", 0.0111],
  ["C82U A120G A145C C150G C169A U176C", 0.00565],
  ["C82A A111U A120G A145G C150U C169G U176C", 0.0178],
  ["C82U A120U A145U C150A C169U", 0.0022],
  ["C82A A111C A120C A145U C150G C169G", 0.00675],
  ["C82U C150A C169U", 0.0105],
  ["C82U A111U A120G A145U C150U C169A U176A", 0.0127],
  ["C82G A111C A145U C150A C169A", 0.00994],
  ["C82A A111U A145G C169A", 0.0104],
  ["C82A A111C A145C C150U U176G", 0.00993],
  ["C82A A120C C150G U176A", 0.00712],
  ["C82G A111C A120C C169A U176G", 0.0072],
  ["A120G A145G U176C", 0.246],
  ["C82A A111U A120U A145U C150G C169G U176A", 0.00327],
  ["C82G A111C A120G C169G", 0.0132],
  ["C82U A120C A145U C150U C169A U176G", 0.00423],
  ["A111C A120G A145G C150A C169A U176C", 0.022],
  ["A111G A145G C150G C169G", 0.0171],
  ["C82A A111U A120C C150U U176G", 0.00805],
  ["C82A A111G A120C A145U C150G C169U", 0.00884],
  ["C82U A111G A120C A145C C150G C169G U176A", 0.00761],
  ["A111C A120C A145G C150G U176A", 0.0158],
  ["A120U A145C C150A", 0.116],
  ["C82U A111G A120U A145U C150A C169A U176G", 0.00195],
  ["A111U A120U C150A C169G", 0.00631],
  ["C82G A111G A120G C150A U176A", 0.0148],
  ["C82U C150U C169G U176A", 0.0135],
  ["C82A A120U C150U U176A", 0.0194],
  ["C82A A111U A120G A145G C150A C169A U176G", 0.00817],
  ["C82G A111U A145U", 0.387],
  ["A111C A120C A145C C150G C169G U176C", 0.00939],
  ["C82U A111G A120C A145C C169U U176A", 0.0142],
  ["C82A A111C A120C C150U C169G U176G", 0.00721],
  ["C82A A111G C150U C169A", 0.011]
]}
